READOUT: pIC50
By convention, pIC50 is the negative base-10 log of a molar concentration.

Form field pIC50 for item C=CC[C@H](NC(=O)[C@@H]1CCc2c(Cl)nc(NCc3cccc(C(F)(F)F)c3)c(=O)n21)B1OC2CC3CC(C3(C)C)[C@@]2(C)O1 (some centres undefined) on NS3 (Hepatitis C virus): 5.34

Form field pIC50 for item C=CC[C@H](NC(=O)[C@@H]1C[C@@H](Cc2cccc(OC)c2)c2c(Cl)nc(NCc3cccc(C(F)(F)F)c3)c(=O)n21)B1OC2CC3CC(C3(C)C)[C@@]2(C)O1 (some centres undefined) on NS3 (Hepatitis C virus): 6.59

Form field pIC50 for item C=CC[C@H](NC(=O)[C@@H]1C[C@@H](CCCc2ccc3ccccc3c2)c2c(Cl)nc(NCc3ccccc3)c(=O)n21)B1OC2CC3CC(C3(C)C)[C@@]2(C)O1 (some centres undefined) on NS3 (Hepatitis C virus): 6.62

Form field pIC50 for item C=CC[C@H](NC(=O)[C@@H]1C[C@H](CCCc2ccccc2)c2c(Cl)nc(NCc3cccc(C(F)(F)F)c3)c(=O)n21)B1OC2CC3CC(C3(C)C)[C@@]2(C)O1 (some centres undefined) on NS3 (Hepatitis C virus): 5.70

Form field pIC50 for item C=CC[C@H](NC(=O)[C@@H]1C[C@@H](CCCc2ccc3ccccc3c2)c2c(Cl)nc(NC)c(=O)n21)B1OC2CC3CC(C3(C)C)[C@@]2(C)O1 (some centres undefined) on NS3 (Hepatitis C virus): 6.49

Form field pIC50 for item C=CC[C@H](NC(=O)[C@@H]1C[C@@H](CCCc2ccc3ccccc3c2)c2c(Cl)nc(NCc3cccc(C(F)(F)F)c3)c(=O)n21)B1OC2CC3CC(C3(C)C)[C@@]2(C)O1 (some centres undefined) on NS3 (Hepatitis C virus): 7.70

Form field pIC50 for item C=CC[C@H](NC(=O)[C@@H]1C[C@@H](CCCc2ccc3ccccc3c2)c2c(Cl)nc(NCc3ccccn3)c(=O)n21)B1OC2CC3CC(C3(C)C)[C@@]2(C)O1 (some centres undefined) on NS3 (Hepatitis C virus): 7.05

Form field pIC50 for item C=CC[C@H](NC(=O)[C@@H]1C[C@@H](CCCc2ccc3ccccc3c2)c2c(Cl)nc(NCC3CCCCC3)c(=O)n21)B1OC2CC3CC(C3(C)C)[C@@]2(C)O1 (some centres undefined) on NS3 (Hepatitis C virus): 6.70

Form field pIC50 for item C=CC[C@H](NC(=O)[C@@H]1C[C@@H](CCCc2cccc3ccccc23)c2c(Cl)nc(NCCC)c(=O)n21)B1OC2CC3CC(C3(C)C)[C@@]2(C)O1 (some centres undefined) on NS3 (Hepatitis C virus): 6.74

Form field pIC50 for item C=CC[C@H](NC(=O)[C@@H]1C[C@@H](CCCc2cccc3ccccc23)c2c(Cl)nc(NCc3cccc(F)c3)c(=O)n21)B1OC2CC3CC(C3(C)C)[C@@]2(C)O1 (some centres undefined) on NS3 (Hepatitis C virus): 7.22

Form field pIC50 for item C=CC[C@H](NC(=O)[C@@H]1C[C@@H](CCCc2ccc3ccccc3c2)c2c(Cl)nc(N)c(=O)n21)B1OC2CC3CC(C3(C)C)[C@@]2(C)O1 (some centres undefined) on NS3 (Hepatitis C virus): 6.72

Form field pIC50 for item C=CC[C@H](NC(=O)[C@@H]1C[C@@H](CCCc2ccc3ccccc3c2)c2c(Cl)nc(NCCCC)c(=O)n21)B1OC2CC3CC(C3(C)C)[C@@]2(C)O1 (some centres undefined) on NS3 (Hepatitis C virus): 6.80

Form field pIC50 for item C=CC[C@H](NC(=O)[C@@H]1C[C@@H](Cc2ccc(-c3ccccc3)cc2)c2c(Cl)nc(NCc3cccc(C(F)(F)F)c3)c(=O)n21)B1OC2CC3CC(C3(C)C)[C@@]2(C)O1 (some centres undefined) on NS3 (Hepatitis C virus): 7.22

Form field pIC50 for item C=CC[C@H](NC(=O)[C@@H]1C[C@H](CCCc2ccc3ccccc3c2)c2c(Cl)nc(NCc3cccc(C(F)(F)F)c3)c(=O)n21)B1OC2CC3CC(C3(C)C)[C@@]2(C)O1 (some centres undefined) on NS3 (Hepatitis C virus): 6.29
